Target: F-box/WD repeat-containing protein 7 (Homo sapiens) (UniProt Q969H0)
Sequence (Q969H0 whole entry, looked up): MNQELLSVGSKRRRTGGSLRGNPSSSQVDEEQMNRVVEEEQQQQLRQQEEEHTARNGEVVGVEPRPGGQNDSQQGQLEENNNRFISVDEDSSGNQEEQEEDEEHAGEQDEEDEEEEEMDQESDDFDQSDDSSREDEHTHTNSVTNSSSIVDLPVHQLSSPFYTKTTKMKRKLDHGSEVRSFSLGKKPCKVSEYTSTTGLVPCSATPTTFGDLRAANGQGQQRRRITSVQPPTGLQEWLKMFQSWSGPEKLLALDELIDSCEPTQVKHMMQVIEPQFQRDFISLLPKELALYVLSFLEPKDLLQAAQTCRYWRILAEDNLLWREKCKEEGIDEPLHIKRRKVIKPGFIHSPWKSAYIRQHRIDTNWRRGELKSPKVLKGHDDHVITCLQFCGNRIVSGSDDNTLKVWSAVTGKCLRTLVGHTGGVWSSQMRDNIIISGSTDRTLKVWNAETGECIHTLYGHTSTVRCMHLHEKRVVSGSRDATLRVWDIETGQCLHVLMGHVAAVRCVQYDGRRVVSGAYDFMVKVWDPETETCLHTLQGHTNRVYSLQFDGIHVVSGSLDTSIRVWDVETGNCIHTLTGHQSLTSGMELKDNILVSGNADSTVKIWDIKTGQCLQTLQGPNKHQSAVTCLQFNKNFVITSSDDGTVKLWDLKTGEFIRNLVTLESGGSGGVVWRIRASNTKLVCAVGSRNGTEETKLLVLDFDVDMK
Experiment: FBW7 E3 ligase activators, primary screen, biochemical, AlphaScreen, human (AID 1259310);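 further: purified mutant Fbw7 with reduced substrate affinity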
Details: AlphaScreen FBW7–phospho-cyclin E peptide binding, activator screen; at 26.1 µM
Among all 650,000 compounds or so, about 850 (0.13%) were called active. No stated cut-off is given here; in the data, active means normalized activity above about 1.9%; inactive means the rest. The sample holds actives, similar compounds and a random draw of the others, so the mix is not that of the screen.
Outcome codes: yes (1) (active), no (0) (inactive)

[
  {
    "compound": "CCSC1=NSC2=NC(=O)/C(=C\\c3ccc(OC)cc3)C(=N)N12",
    "category_label": "no (0)"
  },
  {
    "compound": "CC(=O)Nc1ccc(Nc2nc(Nc3cnccn3)nc3c2ncn3-c2ccccc2)cc1",
    "category_label": "yes (1)"
  },
  {
    "compound": "C#CCN1C(=O)C(O)(CC(=O)c2ccc(OC)c([N+](=O)[O-])c2)c2ccccc21 (stereo not given)",
    "category_label": "no (0)"
  },
  {
    "compound": "O=C(Cc1cccs1)NCCS(=O)(=O)N1CCN(c2ccccn2)CC1",
    "category_label": "no (0)"
  },
  {
    "compound": "O=C(NCc1nnc2n1CCN(Cc1c(F)cccc1Cl)CC2)c1ccccc1",
    "category_label": "no (0)"
  },
  {
    "compound": "C[C@@H](c1ccccc1)n1c(=O)[nH]c2ncc(-c3ccc(C(=O)N4CCN(C)CC4)cc3)nc21",
    "category_label": "no (0)"
  },
  {
    "compound": "CC(=O)Nc1ccc(Nc2nc(Nc3ccc(-n4ccnc4)cc3)nc3c2ncn3-c2ccsc2)cc1",
    "category_label": "no (0)"
  },
  {
    "compound": "Cc1cc(C)nc(/N=C(\\N)N2CCOCC2)n1",
    "category_label": "no (0)"
  },
  {
    "compound": "O=C(O)COc1ccc(C2Nc3ccccc3S(=O)(=O)N2Cc2ccccc2)cc1 (stereo not given)",
    "category_label": "no (0)"
  },
  {
    "compound": "CCCCSc1ncnc2c1c(-c1ccccc1)cn2-c1ccc(OC)cc1",
    "category_label": "no (0)"
  }
]
